Molecular target: T1, His-tagged P3028 (human, also: His-tag, terminus and sequence not given here)
T1 construct: in solution at 0.5 ug/mL over the peptide cards; found with anti-His-tag antibody and rabbit anti-mouse peroxidase (rampo); also called PGE73; not shown: His-tag
T1 peptide: VFDEFKPLVEEPQNLIK
Experiment: PEPSCAN chip ELISA, His-P3028 in solution;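 also: score is the raw OD at 405 nm from peroxidase colour with ABTS, imaged by CCD camera before and after staining, with wells showing air bubbles set to zero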
No end group written: not given here.
measurement_type: RAMPO Score (rampo score)

- binder: "KKLDTFFVKLSLFVER [SEQ ID NO 385]"
  measurement_type: "RAMPO Score"
  quantitative_readout: 380
- binder: "KKLDTFFVKLSLFSER [SEQ ID NO 384]"
  measurement_type: "RAMPO Score"
  quantitative_readout: 369
- binder: "KVLDTFFVKLSLFTER [SEQ ID NO 481]"
  measurement_type: "RAMPO Score"
  quantitative_readout: 317
- binder: "KKLDTFFVKLSLFTEF [SEQ ID NO 388]"
  measurement_type: "RAMPO Score"
  quantitative_readout: 297
